Please go through the items and note down their pKi.
Target: Neuronal acetylcholine receptor; alpha4/beta2 (Rattus norvegicus, UniProt P09483+P12390)
Sequence (P09483 whole entry): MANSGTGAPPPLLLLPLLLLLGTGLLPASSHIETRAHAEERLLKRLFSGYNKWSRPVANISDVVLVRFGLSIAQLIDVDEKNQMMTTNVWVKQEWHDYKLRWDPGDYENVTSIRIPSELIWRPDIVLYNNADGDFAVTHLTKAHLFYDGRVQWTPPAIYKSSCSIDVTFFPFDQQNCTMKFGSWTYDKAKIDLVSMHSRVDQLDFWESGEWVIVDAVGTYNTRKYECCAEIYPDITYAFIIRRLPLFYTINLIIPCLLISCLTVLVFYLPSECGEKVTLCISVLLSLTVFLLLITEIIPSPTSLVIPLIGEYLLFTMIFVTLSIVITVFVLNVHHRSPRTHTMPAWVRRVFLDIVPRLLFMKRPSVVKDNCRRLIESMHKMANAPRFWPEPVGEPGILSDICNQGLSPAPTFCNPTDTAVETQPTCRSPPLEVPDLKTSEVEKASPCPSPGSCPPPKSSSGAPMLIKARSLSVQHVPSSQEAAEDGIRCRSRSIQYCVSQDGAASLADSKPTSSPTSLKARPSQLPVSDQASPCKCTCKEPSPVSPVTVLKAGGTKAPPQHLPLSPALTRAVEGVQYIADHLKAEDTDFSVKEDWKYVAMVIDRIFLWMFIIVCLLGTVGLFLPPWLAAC
Sequence (P12390 whole entry): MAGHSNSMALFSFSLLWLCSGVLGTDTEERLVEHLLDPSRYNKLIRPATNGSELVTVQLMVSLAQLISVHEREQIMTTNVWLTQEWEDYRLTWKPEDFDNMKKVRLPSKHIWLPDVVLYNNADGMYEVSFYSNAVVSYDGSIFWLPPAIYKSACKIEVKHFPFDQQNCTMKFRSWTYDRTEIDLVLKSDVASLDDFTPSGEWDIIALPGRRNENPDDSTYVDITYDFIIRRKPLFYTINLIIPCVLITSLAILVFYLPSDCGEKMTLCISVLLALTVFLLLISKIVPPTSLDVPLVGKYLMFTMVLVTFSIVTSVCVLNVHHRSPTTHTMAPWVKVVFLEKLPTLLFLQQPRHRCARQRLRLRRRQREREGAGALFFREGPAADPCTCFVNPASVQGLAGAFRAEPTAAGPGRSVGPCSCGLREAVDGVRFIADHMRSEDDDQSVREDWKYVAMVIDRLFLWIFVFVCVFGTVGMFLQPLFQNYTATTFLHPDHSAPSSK
Assay: Inhibition of 3 nM [3H]NIC binding to Nicotinic acetylcholine receptor alpha4-beta2 of rat striatal membranes
pKi: −log10 of the molar value.

Q: Assign pKi to the following record: CN[C@@H](CCCCCCc1ccccc1)CCc1ccccc1
Result: < 4.00

Q: State its pKi for this compound: C(=C\[C@@H]1CCC[C@@H](/C=C/c2ccccc2)N1)/c1ccccc1.C(=C\[C@H]1CCC[C@H](/C=C/c2ccccc2)N1)/c1ccccc1
Result: < 4.00

Q: Identify the reported pKi for the following entry. CN1[C@@H](CCc2ccccc2)CCC[C@H]1/C=C/c1ccccc1
Result: < 4.00

###

Molecular target: Neuronal acetylcholine receptor; alpha4/beta2 (Rattus norvegicus, UniProt P09483+P12390)
Test: Inhibition of 3 nM [3H]NIC binding to Nicotinic acetylcholine receptor alpha4-beta2 of rat striatal membranes
pKi: −log10 of the molar value.
assayMetric: pKi

Q: For the compound c1ccc(CC[C@H]2CCC[C@@H](CCc3ccccc3)N2)cc1 , give its measured pKi value.
Result: < 4.00

Q: Read the entry C[N+]1(C)[C@H](/C=C/c2ccccc2)CCC[C@@H]1/C=C/c1ccccc1 and write its reported pKi.
Result: < 4.00

Q: Provide measured pKi value, entry: CN1[C@H](/C=C/c2ccccc2)CCC[C@H]1/C=C/c1ccccc1
Result: < 4.00

Q: Quick one: give measured pKi for CN1[C@H](/C=C/c2ccccc2)CCC[C@@H]1/C=C/c1ccccc1
Result: 4.94

Q: Given the compound CN1[C@@H](/C=C/c2ccccc2)CCC[C@@H]1/C=C/c1ccccc1 , write its reported pKi.
Result: < 4.00

Q: Report pKi for CN1[C@@H](CCc2ccc3ccccc3c2)CCC[C@H]1CCc1ccc2ccccc2c1
Result: < 4.00

Q: Note down pKi recorded for CN1[C@@H](CCc2cccc3ccccc23)CCC[C@H]1CCc1cccc2ccccc12
Result: < 4.00

Q: Annotate the compound CN1[C@@H](CCc2ccccc2)CCC[C@@H]1/C=C/c1ccccc1 with its measured pKi.
Result: < 4.00

Q: Query pKi for C[N+]1(C)[C@H](CCc2ccccc2)CCC[C@H]1CCc1ccccc1
Result: 4.79

Q: Read off the recorded pKi for c1ccc2cc(CC[C@H]3CCC[C@@H](CCc4ccc5ccccc5c4)N3)ccc2c1
Result: < 4.00

###

assayMetric: Ki

Q: Fetch value of Ki on Neuronal acetylcholine receptor subunit alpha-7 (Rattus norvegicus, UniProt Q05941) for c1ccc2c(CC[C@H]3CCC[C@@H](CCc4cccc5ccccc45)N3)cccc2c1 .
Sequence (Q05941 whole entry): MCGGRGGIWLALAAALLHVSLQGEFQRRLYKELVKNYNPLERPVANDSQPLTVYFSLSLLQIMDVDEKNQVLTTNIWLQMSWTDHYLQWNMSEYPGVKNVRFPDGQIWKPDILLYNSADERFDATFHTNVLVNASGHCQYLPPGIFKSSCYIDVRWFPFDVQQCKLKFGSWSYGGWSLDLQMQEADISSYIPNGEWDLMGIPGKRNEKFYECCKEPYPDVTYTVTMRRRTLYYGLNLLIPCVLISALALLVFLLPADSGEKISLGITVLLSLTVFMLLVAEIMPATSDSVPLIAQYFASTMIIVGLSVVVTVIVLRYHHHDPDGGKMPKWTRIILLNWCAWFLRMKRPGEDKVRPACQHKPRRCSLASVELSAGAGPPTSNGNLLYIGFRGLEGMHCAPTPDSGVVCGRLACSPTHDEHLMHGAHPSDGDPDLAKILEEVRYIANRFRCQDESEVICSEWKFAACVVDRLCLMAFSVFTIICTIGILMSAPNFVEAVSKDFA
Result: > 100 µM

Q: Find the measured Ki of CN(C/C=C/c1ccccc1)C/C=C/c1ccccc1 with Neuronal acetylcholine receptor subunit alpha-7 (Rattus norvegicus, UniProt Q05941) as test system.
Result: > 100 µM

Q: Return reported Ki for target or system Neuronal acetylcholine receptor subunit alpha-7 (Rattus norvegicus, UniProt Q05941), item CN1[C@H](/C=C/c2ccccc2)CCC[C@@H]1/C=C/c1ccccc1 .
Result: > 100 µM

Q: Name the recorded Ki of CN1[C@H](CCc2ccccc2)CCC[C@H]1CCc1ccccc1 , assay system Neuronal acetylcholine receptor subunit alpha-7 (Rattus norvegicus, UniProt Q05941).
Result: 25.3 µM

Q: Identify measured Ki obtained with Neuronal acetylcholine receptor subunit alpha-7 (Rattus norvegicus, UniProt Q05941) for CN1[C@@H](CCc2cccc3ccccc23)CCC[C@H]1CCc1cccc2ccccc12 .
Result: > 100 µM

Q: Please report the measured Ki for C(=C\[C@@H]1CCC[C@H](/C=C/c2ccccc2)N1)/c1ccccc1 tested on Neuronal acetylcholine receptor subunit alpha-7 (Rattus norvegicus, UniProt Q05941).
Result: > 100 µM

Q: Lab note: record Ki of C[N+]1(C)[C@H](/C=C/c2ccccc2)CCC[C@@H]1/C=C/c1ccccc1 tested on Neuronal acetylcholine receptor subunit alpha-7 (Rattus norvegicus, UniProt Q05941).
Result: 33.8 µM

Q: With Neuronal acetylcholine receptor subunit alpha-7 (Rattus norvegicus, UniProt Q05941) as the test system, provide measured Ki for this compound: CN1[C@@H](CCc2ccccc2)C=CC[C@H]1/C=C/c1ccccc1
Result: > 100 µM

Q: Give reported Ki for C[N+]1(C)[C@@H](CCc2ccccc2)CCC[C@H]1CCc1ccccc1 (Neuronal acetylcholine receptor subunit alpha-7 (Rattus norvegicus, UniProt Q05941))
Result: 9.63 µM

Q: System Neuronal acetylcholine receptor subunit alpha-7 (Rattus norvegicus, UniProt Q05941). Read-out Ki. Item c1ccc(CC[C@H]2CCC[C@@H](CCc3ccccc3)N2)cc1 . Report value.
Result: > 100 µM

Q: Given C[N+]1(C)[C@H](/C=C/c2ccccc2)CCC[C@H]1/C=C/c1ccccc1 , report its Ki on Neuronal acetylcholine receptor subunit alpha-7 (Rattus norvegicus, UniProt Q05941).
Result: 15.1 µM

Q: # return Ki of CN(CCCc1ccccc1)CCCc1ccccc1 (system: Neuronal acetylcholine receptor subunit alpha-7 (Rattus norvegicus, UniProt Q05941))
Result: > 100 µM

Q: Give Ki for C(=C\[C@@H]1CCC[C@@H](/C=C/c2ccccc2)N1)/c1ccccc1.C(=C\[C@H]1CCC[C@H](/C=C/c2ccccc2)N1)/c1ccccc1 tested on Neuronal acetylcholine receptor subunit alpha-7 (Rattus norvegicus, UniProt Q05941).
Result: > 100 µM

Q: Lab note: record Ki of CN1[C@@H](CCc2ccccc2)CCC[C@@H]1CCc1ccccc1 tested on Neuronal acetylcholine receptor subunit alpha-7 (Rattus norvegicus, UniProt Q05941).
Result: 40 µM

Q: Retrieve Ki on Neuronal acetylcholine receptor subunit alpha-7 (Rattus norvegicus, UniProt Q05941); query CN1[C@H](/C=C/c2ccccc2)CCC[C@H]1/C=C/c1ccccc1
Result: > 100 µM

Q: Under Neuronal acetylcholine receptor subunit alpha-7 (Rattus norvegicus, UniProt Q05941): report Ki of CN1[C@@H](CCc2ccc3ccccc3c2)CCC[C@H]1CCc1ccc2ccccc2c1 .
Result: > 100 µM

Q: Provide Ki, system Neuronal acetylcholine receptor subunit alpha-7 (Rattus norvegicus, UniProt Q05941), entry CN1[C@@H](CCc2ccccc2)CCC[C@H]1CCc1ccccc1
Result: 26 µM

Q: Fill in Ki for C[N+]1(C)[C@H](CCc2ccccc2)CCC[C@H]1CCc1ccccc1 tested with Neuronal acetylcholine receptor subunit alpha-7 (Rattus norvegicus, UniProt Q05941).
Result: 2.39 µM

Q: Provide measured Ki on Neuronal acetylcholine receptor subunit alpha-7 (Rattus norvegicus, UniProt Q05941) for CN[C@@H](CCCCCCc1ccccc1)CCc1ccccc1 please.
Result: > 100 µM

Q: Retrieve Ki on Neuronal acetylcholine receptor subunit alpha-7 (Rattus norvegicus, UniProt Q05941); query CN[C@H](CCCCCCc1ccccc1)CCc1ccccc1
Result: > 100 µM

Q: Name the recorded Ki of c1ccc2cc(CC[C@H]3CCC[C@@H](CCc4ccc5ccccc5c4)N3)ccc2c1 , assay system Neuronal acetylcholine receptor subunit alpha-7 (Rattus norvegicus, UniProt Q05941).
Result: > 100 µM

Q: State recorded Ki with Neuronal acetylcholine receptor subunit alpha-7 (Rattus norvegicus, UniProt Q05941), entry CN1[C@@H](/C=C/c2ccccc2)CCC[C@@H]1/C=C/c1ccccc1 , no comment.
Result: > 100 µM

Entry source: ChEMBL document CHEMBL1140262
